The values you see were collected from patent US20240383908A1.

experimental_target: SHP2 protein (Homo sapiens)
method_notes: Degradation activity on SHP2 protein in MIA Paca-2 cells (Western blot, DC50)
Assay type: cell-based
Design: endogenous in cells; host or cells: MIA Paca-2 cells
run_parameters: read-out: Degradation activity for differenct cell lines MIA Paca-2 (DC50)
The molecules listed here are annotated with their DC50.

molecule | DC50
CC1(N)CCN(c2ccc(-c3cccc(NC(=O)c4ccc(N5CCC(N6CC=C(c7ccc(C(=O)NCc8ccc9c(c8)CN(C8CCC(=O)NC8=O)C9=O)nn7)CC6)CC5)cc4)c3)cn2)CC1 (stereo not shown) [Compound 408] | > 1 µM
CC1(N)CCN(c2cnc(Sc3cccc(NC(=O)CCCCCCCOC4CCN(c5ccc(C(=O)NCc6ccc7c(c6)CN(C6CCC(=O)NC6=O)C7=O)nn5)CC4F)c3)cn2)CC1 (stereo not shown) [Compound 146] | < 0.1 µM
CC1(N)CCN(c2cnc(Sc3cccc(NC(=O)c4ccc(N5CCC(N6CCN(c7ccc(C(=O)NCc8ccc9c(c8)CN(C8CCC(=O)NC8=O)C9=O)nn7)CC6)CC5)cn4)c3)cn2)CC1 (stereo not shown) [Compound 447] | > 1 µM
NC1(CO)CCN(c2cnc(Sc3cccc(NC(=O)CCCCCCN4CC5(CCN(c6ccc(C(=O)NCc7ccc8c(c7)CN(C7CCC(=O)NC7=O)C8=O)nc6)C5)C4)c3)cn2)CC1 (stereo not shown) [Compound 190] | > 1 µM
CC1(N)CCN(c2cnc(Sc3cccc(NC(=O)c4ccc(N5CCN(c6ccc(C(=O)NCc7ccc8c(c7)C(=O)N(C7CCC(=O)NC7=O)C8)nn6)CC5)c(F)c4)c3)cn2)CC1 (stereo not shown) [Compound 260] | > 1 µM
CC1(N)CCN(c2cnc(Sc3cccc(NC(=O)CCN4CC5(CCC(OCCNc6ccc(C(=O)NCc7ccc8c(c7)CN(C7CCC(=O)NC7=O)C8=O)nn6)CC5)C4)c3)cn2)CC1 (stereo not shown) [Compound 214] | > 1 µM
CC1(N)CCN(c2cnc(Sc3cccc(NC(=O)CCCCCCCO[C@@H]4CCN(c5ncc(C(=O)NCc6ccc7c(c6)CN(C6CCC(=O)NC6=O)C7=O)cn5)C4)c3)cn2)CC1 (stereo partly shown) [Compound 104] | > 1 µM
CC1(N)CCN(c2cnc(Sc3cccc(NC(=O)c4ccc(N5CCC(N6CC=C(c7ccc(C(=O)NCc8ccc9c(c8)CN(C8CCC(=O)NC8=O)C9=O)nc7)CC6)C5)cc4)c3)cn2)CC1 (stereo not shown) [Compound 403] | < 0.1 µM
NC1CCN(c2cnc(Sc3cccc(NC(=O)c4ccc(N5CCC(N6CC=C(c7ccc(C(=O)NCc8ccc9c(c8)CN(C8CCC(=O)NC8=O)C9=O)nc7)CC6)CC5)cc4)c3)cn2)CC1F (stereo not shown) [Compound 337] | < 0.1 µM
CC1(N)CCN(c2cnc(Sc3cccc(NC(=O)CCCCCCN4CCC5(CC4)CC(=O)N(CC(=O)NCc4ccc6c(c4)CN(C4CCC(=O)NC4=O)C6=O)C5)c3)cn2)CC1 (stereo not shown) [Compound 215] | > 1 µM

----------
experimental_target: SHP2 protein (Homo sapiens, UniProt Q06124)
Sequence (Q06124 whole entry): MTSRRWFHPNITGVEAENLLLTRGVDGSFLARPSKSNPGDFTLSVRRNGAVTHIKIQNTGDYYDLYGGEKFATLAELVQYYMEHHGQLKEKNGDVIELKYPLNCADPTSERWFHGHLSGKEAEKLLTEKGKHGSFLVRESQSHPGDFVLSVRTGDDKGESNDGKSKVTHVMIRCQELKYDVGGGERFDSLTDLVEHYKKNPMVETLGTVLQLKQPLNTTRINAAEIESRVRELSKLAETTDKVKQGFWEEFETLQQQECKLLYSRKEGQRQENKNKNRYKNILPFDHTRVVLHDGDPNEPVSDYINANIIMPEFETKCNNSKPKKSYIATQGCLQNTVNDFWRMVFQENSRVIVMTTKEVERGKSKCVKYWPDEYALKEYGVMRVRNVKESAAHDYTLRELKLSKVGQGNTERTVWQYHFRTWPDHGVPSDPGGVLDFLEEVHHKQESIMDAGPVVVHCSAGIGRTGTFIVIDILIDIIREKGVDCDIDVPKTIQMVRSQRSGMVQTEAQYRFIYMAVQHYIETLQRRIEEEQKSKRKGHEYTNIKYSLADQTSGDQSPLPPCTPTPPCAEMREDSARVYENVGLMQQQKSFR
method_notes: Degradation activity on SHP2 protein in MV-411 cells (Western blot, DC50)
Assay type: cell-based
Design: endogenous in cells
run_parameters: MV411 cells, 24 hours, read-out: Degradation activity for differenct cell lines MV411 (DC50)
The molecules listed here are annotated with their DC50.

molecule | experimental_target | DC50
CN(Cc1ccc2c(c1)CN(C1CCC(=O)NC1=O)C2=O)C(=O)c1ccc(N2CCC3(CN(CCCCCCC(=O)Nc4cccc(Sc5cnc(N6CCC(C)(N)CC6)cn5)c4)C3)C2)nn1 (stereo not shown) | SHP2 protein (Homo sapiens, UniProt Q06124) | < 100 nM
CC1(N)CCN(c2cnc(Sc3cccc(NC(=O)CCCCCCCO[C@@H]4CN(c5ccc(C(=O)NCc6ccc7c(c6)CN(C6CCC(=O)NC6=O)C7=O)nn5)CC4(F)F)c3)cn2)CC1 (stereo partly shown) | SHP2 protein (Homo sapiens, UniProt Q06124) | < 100 nM
CC1(N)CCN(c2cnc(Sc3cccc(NC(=O)[C@H]4CCC[C@@H]4C(=O)N4CCN(CCCCCCCCC(=O)NCc5ccc6c(c5)CN(C5CCC(=O)NC5=O)C6=O)CC4)c3)cn2)CC1 (stereo partly shown) | SHP2 protein (Homo sapiens, UniProt Q06124) | > 1000 nM
CC1(N)CCN(c2cnc(Sc3cccc(NC(=O)CCCCCC(=O)N4CC5(CCN(C(=O)[C@@H]6C[C@H]6C(=O)NCc6ccc7c(c6)CN(C6CCC(=O)NC6=O)C7=O)C5)C4)c3)cn2)CC1 (stereo partly shown) | SHP2 protein (Homo sapiens, UniProt Q06124) | 100 to 1000 nM
CC(C)(C)OC(=O)NC1CN(c2cnc(Sc3cccc(NC(=O)CCCCCCN4CC5(CCN(c6ccc(C(=O)NCc7ccc8c(c7)CN(C7CCC(=O)NC7=O)C8=O)nn6)C5)C4)c3)cn2)CC1O (stereo not shown) | SHP2 protein (Homo sapiens, UniProt Q06124) | > 1000 nM
Cc1nc2cccc(NC(=O)CCCCCCCCN3CCN(C(=O)CCC(=O)Nc4cccc(Sc5cnc(N6CCC(C)(N)CC6)cn5)c4)CC3)c2c(=O)n1C1CCC(=O)NC1=O (stereo not shown) | SHP2 protein (Homo sapiens, UniProt Q06124) | > 1000 nM
Cc1ncsc1-c1ccc([C@H](C)NC(=O)[C@@H]2C[C@@H](O)CN2C(=O)[C@@H](NC(=O)CCCCCCCCCC(=O)Nc2cccc(Sc3cnc(N4CCC(C)(N)CC4)cn3)c2)C(C)(C)C)cc1 | SHP2 protein (Homo sapiens, UniProt Q06124) | > 1000 nM
Cc1ncsc1-c1ccc([C@H](C)NC(=O)[C@@H]2C[C@@H](O)CN2C(=O)[C@@H](NC(=O)CCCCCCCCCCN2CC(C(=O)Nc3cccc(Sc4cnc(N5CCC(C)(N)CC5)cn4)c3)C2)C(C)(C)C)cc1 | SHP2 protein (Homo sapiens, UniProt Q06124) | 100 to 1000 nM
CC1(N)CCN(c2cnc(Sc3cccc(NC(=O)C4CCN(CCCCCCCCCCC(=O)NCc5ccc6c(c5)CN(C5CCC(=O)NC5=O)C6=O)CC4)c3)cn2)CC1 (stereo not shown) | SHP2 protein (Homo sapiens, UniProt Q06124) | > 1000 nM
Cc1ncsc1-c1ccc([C@H](C)NC(=O)[C@@H]2C[C@@H](O)CN2C(=O)[C@@H](NC(=O)COCCOCCOCCOCC(=O)Nc2ccc(Sc3cnc(N4CCC(C)(CN)CC4)cn3)c(Cl)c2)C(C)(C)C)cc1 | SHP2 protein (Homo sapiens, UniProt Q06124) | 100 to 1000 nM
